Literature survey of pIC50 (system: Tyrosine-protein phosphatase non-receptor type 1 (Homo sapiens)).
pIC50: −log10 of the molar value.
endpoint: pIC50

O=C(Cc1cccnc1)Nc1ccc2sc(C(F)(F)P(=O)(O)O)c(Br)c2c1 : 5.46

1: Cc1ccc(-c2ccc(/C=C/C(=O)O)cc2)n1-c1ccc(/C=C/C(=O)O)cc1
2: COc1ccc(-c2csc([C@H](Cc3ccc(NS(=O)(=O)O)cc3)NC(=O)C(C)(C)C)n2)c(OC)c1
3: CS(=O)(=O)NCc1cc(OCCCC(F)(F)F)c2sc(C(F)(F)P(=O)(O)O)c(Br)c2c1
4: O=C(O)[C@@H](Cc1ccccc1)Oc1ccc(-n2cccc2-c2ccc(Br)cc2)cc1
5: CCCCCCCCCn1c(C)ccc1-c1ccc(O[C@H](Cc2ccccc2)C(=O)O)cc1
Please order the records by their reported pIC50, lowest number first. Write the labels in rank order as requested. 2, 1, 4, 5, 3
(2: 4.37, 1: 5.19, 4: 6.00, 5: 6.44, 3: 6.76)
